// reported % BTK Remaining per item
Assay target: BTK (Mus musculus)
Construct: from tissue; host or cells: mouse blood B cells / splenocytes (CD-1 or BALB/c)
Sequence (P35991 whole entry): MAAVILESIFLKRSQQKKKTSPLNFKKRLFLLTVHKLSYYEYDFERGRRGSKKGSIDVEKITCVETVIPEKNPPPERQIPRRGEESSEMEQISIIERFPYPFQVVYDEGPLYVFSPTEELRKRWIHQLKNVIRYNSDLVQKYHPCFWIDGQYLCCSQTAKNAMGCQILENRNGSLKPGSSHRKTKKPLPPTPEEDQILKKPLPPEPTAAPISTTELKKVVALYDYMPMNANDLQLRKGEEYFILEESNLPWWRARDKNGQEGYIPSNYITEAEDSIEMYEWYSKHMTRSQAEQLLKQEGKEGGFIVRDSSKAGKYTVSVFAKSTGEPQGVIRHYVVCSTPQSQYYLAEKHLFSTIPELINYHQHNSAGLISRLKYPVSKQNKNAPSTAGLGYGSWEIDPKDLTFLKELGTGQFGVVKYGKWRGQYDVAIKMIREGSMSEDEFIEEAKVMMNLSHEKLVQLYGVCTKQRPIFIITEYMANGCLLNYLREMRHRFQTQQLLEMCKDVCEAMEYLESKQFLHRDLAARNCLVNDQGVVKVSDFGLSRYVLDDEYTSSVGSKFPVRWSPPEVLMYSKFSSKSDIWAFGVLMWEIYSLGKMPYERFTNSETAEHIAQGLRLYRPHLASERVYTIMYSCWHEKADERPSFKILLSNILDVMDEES
Assay remarks: In vivo degradation of BTK in mouse PD experiments with oral dosing
Conditions used: oral dose 30 mg/kg, 24 h, blood, flow cytometry
Unit % implied. Number only.

Known % BTK Remaining results, listed for orientation:
# Molecule, Measurement unit, % BTK Remaining
rows = [
    ("NC(=O)c1ncc(N2CCCC(N3CCCC3=O)C2)nc1Nc1ccc(C2CCN(C[C@@H]3CCN(c4ccc5c(c4)C(=O)N(C4CCC(=O)NC4=O)C5=O)C3)CC2)cc1 (some centres unmarked) [Compound 146]", "%", 37),
    ("CN1CCN([C@H]2CCCN(c3cnc(C(N)=O)c(Nc4ccc(C5CCN(CC6CCN(c7ccc(C(=O)NC8CCC(=O)NC8=O)nc7)CC6)CC5)cc4)n3)C2)C1=O (some centres unmarked) [Compound 130]", "%", 5),
    ("NC(=O)c1ncc(-c2nccs2)nc1Nc1ccc(C2CCN(C[C@@H]3CCN(c4ccc5c(c4)C(=O)N(C4CCC(=O)NC4=O)C5=O)C3)CC2)cc1 (some centres unmarked) [Compound 148]", "%", 24),
    ("CN1CCN([C@@H]2CCCN(c3cnc(C(N)=O)c(Nc4ccc(C5CCN(C[C@H]6C[C@H](Nc7cccc8c7C(=O)N([C@@H]7CCC(=O)NC7=O)C8=O)C6)CC5)cc4)n3)C2)C1=O [Compound 202]", "%", 79),
]

The reported % BTK Remaining of the molecule Cn1c(=O)n([C@@H]2CCC(=O)NC2=O)c2ccc(N3CC[C@H](CN4CCC(c5ccc(Nc6nc(N7CCCCC7)cnc6C(N)=O)cc5)CC4)C3)cc21 [Compound 196] was 33
